B1: ZBED2 (parent)
chain: RAGHHPNQYATCRLCGRQVSRGPG

- Variants of: B1
- Assay Details: protein stability index of a GFP-peptide fusion (GPS, HEK-293T) (PSI 1-6); higher = more stable;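 further: lentivirally expressed fusions sorted by FACS into six bins by GFP to DsRed ratio, PSI derived from sequencing read proportions per bin multiplied by bin number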
- Condition Set: c terminus: a fixed tail appended
Could you please report measured protein stability index for the items listed next?
# print the numeric value only

Input: Reported protein stability index for `N7E` : what is it?
Output: 2.52

Input: Also need `H4R` , thanks.
Output: 1.12

Input: Same thing, different variant: `H4Y`
Output: 1.24

Input: What would you report for `G24L` ?
Output: 2.07

Input: Entry `H4D` please
Output: 2.09

Input: Okay, and `G22P` ?
Output: 2.57

Input: Record: `C15D`
Output: 3.55

Input: Further, for `N7P` ?
Output: 1.56

Input: Please give the result for `N7L` too.
Output: 2.67

Input: Please do the same for `V19Q` as well.
Output: 2.48

Input: Again, but for `N7M`
Output: 2.04

Input: Same read-out for `H4A` ?
Output: 2.76

Input: What about `T11E` ?
Output: 2.84

Input: Can you check `S20T` next?
Output: 1.91

Input: And `L14G` ?
Output: 2.04

Input: Also `Q18F` , if possible.
Output: 2.67

Input: Check `G3C` too.
Output: 4.01

Input: And `G3L` ?
Output: 2.27

Input: Record: `R13H`
Output: 1.59

Input: Entry to check: `C12L`
Output: 2.27

Input: Again, but for `G16P`
Output: 2.41

Input: Param item: `R17L`
Output: 2.64

Input: Proceed to `N7F`
Output: 1.08

Input: Would you mind doing `G3R` as well?
Output: 2.09

Input: Now this one: `G24M`
Output: 2.17

Input: Now this one: `P6I`
Output: 1.45

Input: What do we get for `V19M` ?
Output: 1.48

Input: Follow-up entry: `G3V`
Output: 1.64

Input: // same read-out, input: `A2E`
Output: 2.33

Input: # repeat for `C15K`
Output: 3.16

Input: What about `V19N` ?
Output: 1.4

Input: // same read-out, input: `L14I`
Output: 1.48

Input: What would you report for `P6F` ?
Output: 1.33

Input: Entry `A2S` please
Output: 2.04

Input: // same read-out, input: `P23F`
Output: 1.54

Input: What would you report for `G3A` ?
Output: 2.29

Input: What would you report for `C15R` ?
Output: 2.83

Input: Note, next up: `L14A`
Output: 1.78

Input: Moving on to the next variant: `G16D`
Output: 1.78

Input: Another: `Q8Y`
Output: 1.13

Input: Next record, please: `C12V`
Output: 2.49

Input: Let us now turn to `R17C`
Output: 1.91

Input: Also check `R1D`
Output: 2.57

Input: Also check `V19T`
Output: 2.22

Input: Item: `T11S`
Output: 1.5

Input: Further, for `A10L` ?
Output: 2.12

Input: Follow-up entry: `L14V`
Output: 1.07

Input: Please give the result for `G3H` too.
Output: 1.25

Input: Now give it for `R13E` too.
Output: 1.9

Input: Input `R1Q`
Output: 1.5

Input: Moving on to `H5E`
Output: 3.69

Input: Ok, now `G24K`
Output: 2.03

Input: Continue with `R13Y`
Output: 2.42

Input: Moving on to `H4C`
Output: 1.84

Input: Thanks! And `A10G` ?
Output: 2.12

Input: Same again, this time with `R17I`
Output: 1.86

Input: Okay, and `G16K` ?
Output: 1.51

Input: Same again, this time with `G24S`
Output: 1.56

Input: Item: `Y9H`
Output: 2.28

Input: Next entry: `R1M`
Output: 1.79

Input: Can you handle `P23C` next?
Output: 2.96

Input: `Q8E` ?
Output: 3.47

Input: Subsequent entry: `H5I`
Output: 2.27

Input: Lookup `S20M`
Output: 2.4

Input: Then what about the variant `N7A` ?
Output: 1.78

Input: And then `Q18I` , what is it?
Output: 2.23

Input: Then what about the variant `R1K` ?
Output: 1.68

Input: Also `R21S` ?
Output: 1.65

Input: And for `R13M` ?
Output: 2.24

Input: Moving on to the next variant: `H5F`
Output: 1.89

Input: Now try `Q8M` .
Output: 1.23

Input: What about `A10S` ?
Output: 2.2

Input: Same lookup for `S20C` , please.
Output: 2.49

Input: One more variant: `G22D`
Output: 1.64

Input: Try `T11N` next.
Output: 1.97

Input: One more variant: `C12H`
Output: 2.49

Input: Moving on to the next variant: `P23S`
Output: 2.05

Input: Also `P6H` , if possible.
Output: 2.31

Input: Then this variant: `H5Q`
Output: 2.16

Input: Then `G22I` ?
Output: 1.9

Input: Subsequent entry: `A10F`
Output: 2.67

Input: And what about the variant `R13L` ?
Output: 1.58

Input: Now consider `Q8H` .
Output: 1.9

Input: How about `V19E` ?
Output: 1.7

Input: Okay, and `S20L` ?
Output: 2.29

Input: Moving on to `G22V`
Output: 1.77

Input: Thanks! And `R1N` ?
Output: 2.85

Input: Would you mind doing `G22M` as well?
Output: 1.57

Input: For `A2Q` then?
Output: 1.4

Input: Cool, now `H4L`
Output: 1.78

Input: Also, `R13V` please.
Output: 2.39

Data provenance: the supplement of paper PMC10567573
